- Target of assay: human GST-RIPK1 (Homo sapiens)
- Sequence (Q13546 1-375 limits assumed): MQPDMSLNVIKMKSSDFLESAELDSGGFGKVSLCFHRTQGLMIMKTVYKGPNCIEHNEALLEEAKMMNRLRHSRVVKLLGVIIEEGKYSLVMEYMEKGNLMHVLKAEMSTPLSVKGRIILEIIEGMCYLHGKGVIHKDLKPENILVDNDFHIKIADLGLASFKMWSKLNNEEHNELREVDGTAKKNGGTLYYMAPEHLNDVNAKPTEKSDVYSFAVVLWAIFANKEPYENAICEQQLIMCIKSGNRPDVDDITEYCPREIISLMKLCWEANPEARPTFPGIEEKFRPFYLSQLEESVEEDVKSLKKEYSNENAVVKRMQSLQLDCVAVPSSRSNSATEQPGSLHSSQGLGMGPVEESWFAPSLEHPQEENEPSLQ
Where a name gives a salt, the structure may show the parent alone.
Measurement kind: log10 IC50 (log10 of the value in nM)
All values: log10 IC50 [nM].

Worked examples, 3 compounds total:
Compound	Target of assay	Numeric result
Cn1ccc(Nc2cccn3c(C#Cc4cccc(NC(=O)N5N=CCC5c5ccccc5)c4)cnc23)n1 (stereo not drawn) [Example 68, 2,2,2-trifluoroacetate]	human GST-RIPK1 (Homo sapiens)	1.59
O=C(Nc1cccc(C#Cc2cnc3cccnn23)c1)N1N=CC[C@H]1c1ccccc1 [Example 20, hydrochloride]	human GST-RIPK1 (Homo sapiens)	-0.28
O=C(Nc1cccc(C#Cc2cnc3cccnn23)c1)N1N=CCC1c1ccc(F)cc1 (stereo not drawn) [Example 31, 2,2,2-trifluoroacetate]	human GST-RIPK1 (Homo sapiens)	1.01

Q. Which measured log10 IC50 value corresponds to O=C(Nc1cccc(C#Cc2cnc3cccnn23)c1)N1N=CC[C@@H]1c1cc(F)cc(F)c1 [Example 25, 2,2,2-trifluoroacetate] ?
A. 2.94

Q. Input Cc1ccc(NC(=O)N2N=CC[C@@H]2c2ccccc2)cc1C#Cc1cnc2cccnn12 [Example 3, 2,2,2-trifluoroacetate]
A. 2.34
